# Tested on: SK-MEL-2 melanoma
# Assay Explanation: NCI-60 one-dose screen, 48 h (100 = growth as untreated, 0 = no growth, -100 = all killed)
# Setup Conditions: 10 µM unless noted
# Protocol: Growth inhibition of the SK-MEL-2 human tumor cell line is measured as a screen for anti-cancer activity. Cells are grown in 96 well plates and exposed to the test compound for 48 hours. Compounds are tested at a single concentration, which is 10^-5 M for most compounds. The reported endpoint is percent growth (GI% or GIPRCNT), where numbers from 0 - 100% represent growth inhibition, and numbers from -100% - 0 represent cell death. For example, a value of 40 represents 60% growth inhibition. […]
This is part of a sample that, as a whole, favours compounds with a hit. Of some 83,000 tested, about 20% had one in any assay.
growth listing for selected compounds.
Only the number, expressed in %, is required.

response.value for CCCCCCCCCCCC(=O)OCCNC(=O)C[n+]1ccccc1 (field: growth) = 97.7

Record Cc1cccc(CC(=O)c2ccccc2)n1 . Reported growth: 96.7

Query COC(=O)CCCNS(=O)(=O)c1cc(C(=O)Nc2ccc(NC(=O)c3cc(S(=O)(=O)NCCCC(=O)OC)c(O)c(O)c3O)cc2)c(O)c(O)c1O yields growth of 98.6
